# Tested on: Plasmodium berghei
# measurement notes: Screen against P. berghei liver stage (PbLuc), transformed with Luciferase, at 10uM
# Format: functional, HepG2
# experimental conditions: tested at 10 uM
Among all 69,000 compounds or so, about 8,600 (12%) showed an effect of 50% or more. The sample as a whole holds a higher share of strong results than the screen did.

>  <compound>
Cc1cccc(N2CCC(N3CCC4(CCCNC4=O)C3)CC2)c1C (stereo unspecified)

>  <readout units>
%

>  <INHIBITION>
32.7

$$$$
>  <compound>
Cc1cccc(N2CCC(N3CCCC4(CN(C)C(=O)O4)C3)CC2)c1C (stereo unspecified)

>  <readout units>
%

>  <INHIBITION>
36.7

$$$$
>  <compound>
CCn1cc(NC(=O)NCc2ccc(CN3CCOCC3)cc2)cn1

>  <readout units>
%

>  <INHIBITION>
30.2

$$$$
>  <compound>
Cc1cccc(N2CCC(N3CCC4(CN(C)C(=O)O4)C3)CC2)c1C (stereo unspecified)

>  <readout units>
%

>  <INHIBITION>
64.4

$$$$
>  <compound>
O=C1NCC2(CCCN(C(=O)Cn3nc4ccccc4n3)CC2)O1 (stereo unspecified)

>  <readout units>
%

>  <INHIBITION>
4.87

$$$$
>  <compound>
Cc1cccc(N2CCC(N3CCCC4(CNC(=O)O4)C3)CC2)c1C (stereo unspecified)

>  <readout units>
%

>  <INHIBITION>
63.4

$$$$

Sourced from ChEMBL document CHEMBL4513216
